B1: HDV Ribozyme (parent)
chain: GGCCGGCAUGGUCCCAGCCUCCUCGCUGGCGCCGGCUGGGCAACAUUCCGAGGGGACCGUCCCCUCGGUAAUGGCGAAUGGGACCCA

Variants of: B1
ASSAY PROTOCOL: self-cleavage, relative activity (ratio to wild type); higher = more cleavage; co-transcriptional
Label -1 if self-cleavage falls below 0.2; label 1 in every other case.

# example entries with known answers
MUTATION NAME: U27G A77U
LABEL VALUE: 1

MUTATION NAME: A16U C63U
LABEL VALUE: 1

MUTATION NAME: G5U G73C
LABEL VALUE: 1

MUTATION NAME: U60A C75A
LABEL VALUE: -1

MUTATION NAME: U23G C62G
LABEL VALUE: 1

MUTATION NAME: G6U U37G
LABEL VALUE: -1

MUTATION NAME: G34C G67C
LABEL VALUE: -1

MUTATION NAME: C33A C36A
LABEL VALUE: 1

Is reported self-cleavage greater than or equal to 0.2 here: C32A C44A 1

Is reported self-cleavage greater than or equal to 0.2 here: G76U 1

Is reported self-cleavage greater than or equal to 0.2 here: G25A C86A -1
